# measurement-notes: Determination of the microsomal half-life, rat liver microsomes
# protocol-conditions: rat, liver microsomes, pH 7.4
Counter-ions that a name gives are not always drawn.
value-kind: microsomal CLint at 0.5 μM

Completed entries (count: 7):
| molecule | microsomal CLint at 0.5 μM |
| --- | --- |
| O=C1c2cccc(-c3ccncc3)c2CN1CCc1cn2ccccc2n1 [Example 316] | 100 to 220 µL/min/mg |
| O=C(O)C1CN(c2ccnc3c2C(=O)N(CCc2ccc4ccccc4n2)C3)C1 [compound 446] | < 100 µL/min/mg |
| COc1ccc(-c2ccncc2)c2c1CN(CCc1cn3ccccc3n1)C2=O [Example 374] | < 100 µL/min/mg |
| O=C1c2c(cccc2-c2cncnc2)CN1CCc1cn2ccccc2n1 [Example 238] | < 100 µL/min/mg |
| O=C1c2c(cccc2NC2CCS(=O)(=O)C2)CN1CCc1ccc2ccccc2n1 (centres unmarked) [Example 190] | 100 to 220 µL/min/mg |
| O=C1c2c(cccc2-c2ccc3nc[nH]c3c2)CN1CCc1ccc2ccccc2n1 [Example 11, trifluoroacetate] | < 100 µL/min/mg |
| COc1ccc(-c2ccnn2C)c2c1C(=O)N(CCc1cn3ccccc3n1)C2 [compound 464, trifluoroacetate] | < 100 µL/min/mg |

Field: next molecule
**Q:** I am curious: what microsomal CLint at 0.5 μM value has been reported for Cc1cccn2cc(CCN3Cc4nccc(-c5ccncc5)c4C3=O)nc12 [compound 496, trifluoroacetate] ?
**A:** < 100 µL/min/mg

====

# measurement-notes: Determination of the microsomal half-life, human liver microsomes
# protocol-conditions: human liver microsomes, 0.5 μM test substance, 0.25 mg microsomal protein, pH 7.4, 37° C., NADPH

| smiles-repr | Human mCl (mikrosomal clearance) |
| --- | --- |
| O=C1c2c(N3CCOCC3)ccnc2CN1CCc1cn2ccsc2n1 | ◯ |
| O=C(O)C(F)(F)F.O=C1c2c(-c3ccnc(F)c3)ccnc2CN1CCc1nc2ccccc2s1 | ◯ |

====

# target-of-assay: PDE10A (human) (Homo sapiens)
# Sequence (Q9Y233 whole entry): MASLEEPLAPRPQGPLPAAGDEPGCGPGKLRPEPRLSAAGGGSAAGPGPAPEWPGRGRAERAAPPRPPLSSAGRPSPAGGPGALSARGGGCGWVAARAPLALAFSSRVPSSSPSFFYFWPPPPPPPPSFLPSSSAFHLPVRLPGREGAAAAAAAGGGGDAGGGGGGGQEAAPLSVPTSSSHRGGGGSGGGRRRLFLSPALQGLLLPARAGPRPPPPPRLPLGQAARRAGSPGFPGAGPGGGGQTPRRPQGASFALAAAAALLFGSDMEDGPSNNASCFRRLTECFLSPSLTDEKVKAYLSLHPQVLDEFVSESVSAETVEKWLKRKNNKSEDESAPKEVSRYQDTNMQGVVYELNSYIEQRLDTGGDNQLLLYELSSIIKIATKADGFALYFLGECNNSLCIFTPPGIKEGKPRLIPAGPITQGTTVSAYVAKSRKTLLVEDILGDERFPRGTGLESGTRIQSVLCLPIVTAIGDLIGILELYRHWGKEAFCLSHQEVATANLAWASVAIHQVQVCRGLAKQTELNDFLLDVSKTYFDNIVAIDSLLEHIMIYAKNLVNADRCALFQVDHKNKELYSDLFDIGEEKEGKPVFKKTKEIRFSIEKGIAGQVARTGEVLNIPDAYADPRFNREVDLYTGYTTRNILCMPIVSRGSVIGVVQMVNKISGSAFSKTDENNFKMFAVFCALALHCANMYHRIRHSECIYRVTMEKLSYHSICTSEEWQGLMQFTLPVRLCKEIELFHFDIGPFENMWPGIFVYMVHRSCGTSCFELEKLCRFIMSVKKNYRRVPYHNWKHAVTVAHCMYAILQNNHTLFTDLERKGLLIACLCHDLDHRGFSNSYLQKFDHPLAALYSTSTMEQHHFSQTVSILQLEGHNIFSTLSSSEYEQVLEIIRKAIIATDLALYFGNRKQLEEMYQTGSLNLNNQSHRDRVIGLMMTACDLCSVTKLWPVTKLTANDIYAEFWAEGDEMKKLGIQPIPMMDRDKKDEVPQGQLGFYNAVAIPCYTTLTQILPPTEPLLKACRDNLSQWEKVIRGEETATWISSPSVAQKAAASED
Counter-ions that a name gives are not always drawn.
Record form. Attribute: IC50. Fill in for each entry.

Completed entries (count: 10):
| molecule | result |
| --- | --- |
| Cn1cnc2ccc(-c3cccc4c3C(=O)N(CCc3ccc5ccccc5n3)C4)cc21 [Example 8, trifluoroacetate] | 200 to 500 nM |
| CCCn1c(CCN2Cc3cccc(-c4ccncc4)c3C2=O)nc2ccccc21 [Example 302, trifluoroacetate] | < 100 nM |
| O=C1c2c(cccc2N2CCCOCC2)CN1CCc1ccc2ccccc2n1 [Example 110, hydrochloride] | < 100 nM |
| O=C1c2c(cccc2-c2cn[nH]c2)CN1CCc1ccc2ccccc2n1 [Example 78] | < 100 nM |
| CCn1c(CCN2Cc3cccc(N4CCOCC4)c3C2=O)nc2ccccc21 [Example 278] | < 100 nM |
| O=C1c2c(cccc2-c2ccncc2)CN1CCc1nc2ccccc2s1 [Example 223, trifluoroacetate] | < 100 nM |
| COc1ccc(N2CCOCC2)c2c1CN(CCc1ccc3ccccc3n1)C2=O [Example 248] | < 100 nM |
| COc1cc(-c2cccc3c2C(=O)N(CCc2ccc4ccccc4n2)C3)ccn1 [Example 182, trifluoroacetate] | 200 to 500 nM |
| O=C1c2c(cccc2-c2ccc(F)cn2)CN1CCc1ccc2ccccc2n1 [Example 88] | 200 to 500 nM |
| O=C1c2c(NC3COC3)ccnc2CN1CCc1ccc2ccccc2n1 [Example 275] | < 100 nM |

Answer for every listed entry: what is its IC50? The entries follow.
1. Cc1cc(-c2cccc3c2CN(CCc2ccc4ccccc4n2)C3=O)n(C)n1 [Example 348]
2. O=C1c2c(cccc2-c2ccncc2)CN1CCc1nc2ccccc2n1C(F)F [compound 450, trifluoroacetate]
3. O=C1c2c(cccc2N2CCOCC2)CN1CCc1cn2ccccc2n1 [Example 310]
4. O=C1c2cccc(-c3ccncc3)c2CN1CCc1cn2ccccc2n1 [Example 316]

**A:**
1: 100 to 200 nM; 2: 200 to 500 nM; 3: < 100 nM; 4: < 100 nM

Answer for every listed entry: what is its IC50? The entries follow.
1. O=C1c2c(C3=COCC3)ccnc2CN1CCc1ccc2ccccc2n1 [Example 266]
2. CN(C)C1CCN(c2ccnc3c2C(=O)N(CCc2ccc4ccccc4n2)C3)CC1 [Example 363, hydrochloride]
3. O=C1c2c(N3CCC(F)(F)CC3)ccnc2CN1CCc1ccc2ccccc2n1 [Example 258]
4. CCOc1ncc(-c2cccc3c2CN(CCc2ccc4ccccc4n2)C3=O)cn1 [Example 343]
5. COc1ccc(N2CCN(C)CC2)c2c1CN(CCc1ccc3ccccc3n1)C2=O [Example 261, di-trifluoroacetate]
6. O=C1c2c(-c3ccncc3F)ccnc2CN1CCc1ccc2ccccc2n1 [compound 412]
7. Cc1occc1-c1ccnc2c1C(=O)N(CCc1cn3ccccc3n1)C2 [compound 524]
8. Cn1c(CCN2Cc3cccc(N4CCS(=O)(=O)CC4)c3C2=O)nc2ccccc21 [Example 184, trifluoroacetate]

**A:**
< 100 nM
200 to 500 nM
< 100 nM
200 to 500 nM
< 100 nM
< 100 nM
100 to 200 nM
< 100 nM

Answer for every listed entry: what is its IC50? The entries follow.
1. O=C1c2c(cccc2-c2cc(F)ccc2F)CN1CCc1ccc2ccccc2n1 [Example 51]
2. Cn1nccc1-c1cccc2c1CN(CCc1ccc3ccccc3n1)C2=O [Example 202, trifluoroacetate]
3. CCc1ccc(CCN2Cc3nccc(-c4ccncc4)c3C2=O)nc1 [compound 501, trifluoroacetate]
4. CSCOc1ccc(-c2ccncc2)c2c1CN(CCc1ccc3ccccc3n1)C2=O [Example 267]
5. COc1ccc(-c2ccncc2)c2c1C(=O)N(CCc1cn3ccccc3n1)C2 [compound 448, trifluoroacetate]
6. O=C1c2c(cccc2-c2nccs2)CN1CCc1ccc2ccccc2n1 [Example 82]
7. Cc1ccc2ccc(CCN3Cc4nccc(-c5ccncc5)c4C3=O)nc2c1 [compound 394, trifluoroacetate]
8. CCn1c(CCN2Cc3cccc(-c4ccncc4)c3C2=O)nc2ccccc21 [Example 222, trifluoroacetate]

**A:**
1: 200 to 500 nM; 2: < 100 nM; 3: 100 to 200 nM; 4: < 100 nM; 5: < 100 nM; 6: 200 to 500 nM; 7: < 100 nM; 8: < 100 nM

====

Record form. Attribute: microsomal CLint at 0.5 μM. Fill in for each entry.
# measurement-notes: Determination of the microsomal half-life, human liver microsomes
# protocol-conditions: human, liver microsomes, pH 7.4
Counter-ions that a name gives are not always drawn.

Completed entries (count: 6):
| compound | microsomal CLint at 0.5 μM |
| --- | --- |
| O=C1c2c(N3CCOCC3)ccnc2CN1CCc1ccc2sccc2n1 | 100 to 220 µL/min/mg |
| O=C1c2c(-c3cccnc3)ccnc2CN1CCc1ccc2ccccc2n1 | 100 to 220 µL/min/mg |
| O=C1c2nccc(-c3ccncc3)c2CN1CCc1ccc2ccccc2n1 | < 100 µL/min/mg |
| COc1ccc(N2CCOCC2)c2c1CN(CCc1nc3ccccc3n1C)C2=O | > 220 µL/min/mg |
| O=C1c2c(cccc2N2CC[C@@H]3NCC[C@@H]3C2)CN1CCc1ccc2ccccc2n1 [Example 220, trifluoroacetate] | 100 to 220 µL/min/mg |
| O=C1c2c(-c3cncnc3)ccnc2CN1CCc1ccc2ccccc2n1 | < 100 µL/min/mg |

Answer for every listed entry: what is its microsomal CLint at 0.5 μM? The entries follow.
1. COc1ccc(-c2ccnn2C)c2c1CN(CCc1cn3ccccc3n1)C2=O
2. Cn1c(CCN2Cc3nccc(-c4cccnc4)c3C2=O)nc2ccccc21
3. COc1ccc(-c2cc[nH]n2)c2c1C(=O)N(CCc1nc3ccccc3s1)C2

**A:**
1: < 100 µL/min/mg; 2: < 100 µL/min/mg; 3: < 100 µL/min/mg

====

# measurement-notes: Determination of the microsomal half-life, human liver microsomes
# protocol-conditions: human, liver microsomes, pH 7.4
Counter-ions that a name gives are not always drawn.
value-kind: microsomal CLint at 0.5 μM

Completed entries (count: 2):
| compound | result |
| --- | --- |
| O=C1c2c(N3CC4COCC4C3)ccnc2CN1CCc1nc2ccccc2s1 (stereo not shown) | 100 to 220 µL/min/mg |
| Cc1ccc(CCN2Cc3nccc(N4CCS(=O)(=O)CC4)c3C2=O)nc1 [compound 479, trifluoroacetate] | < 100 µL/min/mg |

Answer for every listed entry: what is its microsomal CLint at 0.5 μM? The entries follow.
1. Cc1cccnc1CCN1Cc2nccc(N3CCOCC3)c2C1=O
2. O=C1c2c(-c3ccc(F)cc3)ccnc2CN1CCc1nc2ccccc2s1 [compound 542, trifluoroacetate]
3. Cc1ccc(CCN2Cc3nccc(-c4ccncc4)c3C2=O)nc1 [compound 481, trifluoroacetate]
4. O=C1c2nccc(-c3cccnc3)c2CN1CCc1ccc2ccccc2n1 [compound 463, trifluoroacetate]
5. CN1CCN(c2ccnc3c2C(=O)N(CCc2nc4ccccc4n2C)C3)CC1 [Example 226, trifluoroacetate]
6. O=C1c2c(cccc2N2CCS(=O)(=O)CC2)CN1CCc1nc2ccccn2n1
7. [2H]c1nc2c(c(N3CCOCC3)c1[2H])C(=O)N(CC([2H])([2H])c1nc3c([2H])c([2H])c([2H])c([2H])c3c([2H])c1[2H])C2([2H])[2H]

**A:**
["< 100 µL/min/mg", "< 100 µL/min/mg", "< 100 µL/min/mg", "< 100 µL/min/mg", "< 100 µL/min/mg", "< 100 µL/min/mg", "100 to 220 µL/min/mg"]

Answer for every listed entry: what is its microsomal CLint at 0.5 μM? The entries follow.
1. O=C1c2c(cccc2-c2cncnc2)CN1CCc1cn2ccccc2n1
2. O=C1c2c(-c3cn[nH]c3)ccc(F)c2CN1CCc1cn2ccccc2n1

**A:**
100 to 220 µL/min/mg
< 100 µL/min/mg

Answer for every listed entry: what is its microsomal CLint at 0.5 μM? The entries follow.
1. O=C1c2c(N3CCOCC3)ccnc2CN1CCc1nc(C2CC2)cs1
2. O=C1c2c(cccc2N2CC3CNCC3C2)CN1CCc1ccc2ccccc2n1 (stereo not shown)

**A:**
["< 100 µL/min/mg", "< 100 µL/min/mg"]

All values here come from patent US9938269B2.
